Biological target: T1, phycoerythrin (PE)-conjugated BCMA (Recombinant Human TNFRSF17 protein, Fc/His-tagged, R-PE labeled); Creative … (human, UniProt Q02223 1-54, R-PE labeled)
T1 construct: Bought reagent; also called BCMA-PE; not shown: Fc/His tag of the bought reagent
T1 sequence: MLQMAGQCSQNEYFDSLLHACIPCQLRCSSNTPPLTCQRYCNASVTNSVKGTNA
Assay: flow cytometry; CAR T cells stained with BCMA-PE, 3 days after electroporation
Property measured: BCMA Binding (arbitrary units)
Please state the number and follow it with the unit.

Observe how each entry below is paired with its result.
CAR comprising scFv-Y32 (SEQ ID NO: 57) (other, CAR on mRNA-electroporated human CD8+ T cells; Only the scFv is identified; not shown: rest of the CAR (hinge, transmembrane, cytoplasmic domains) not specified for this construct) DIVLTQSPSSLSASVGDRATISCRASESVTILGSHLIHWYQQKPGQAPKLLIQLASNVQTGVPARFSGSGSGTDFTLTISSVEPEDVAVYYCLQSRTIPRTFGQGTKVEIKGSTSGSGKPGSGEGSTKGQIQLVQSGPELKKPGGSVKISCAASGYTFTDYSINWVRQAPGKGLEWVGWINTETREPAYAYDFRGRFTFSADTSKSTAYLQMNSLRAEDTAVYYCALDYSYAMDYWGQGTLVTVSS: 343 arbitrary units
CAR comprising scFv-10′ (SEQ ID NO: 66) (other, CAR on mRNA-electroporated human CD8+ T cells; Only the scFv is identified; not shown: rest of the CAR (hinge, transmembrane, cytoplasmic domains) not specified for this construct) DIVLTQSPSSLSASVGDRATISCRASESVTILGSHLIHWYQQKPGQAPKLLIQLASNVQTGVPARFSGSGSGTDFTLTISSVEPEDVAVYYCLQSRTIPRTFGQGTKVEIKGSTSGSGKPGSGEGSTKGQIQLVQSGPELKKPGGSVKISCAASGYTFTSYSINWVRQAPGKGLEWVGWINTETREPAYAQGFTGRFTFSADTSKSTAYLQMNSLRAEDTAVYYCALDYLYSLDFWGQGTLVTVSS: 269 arbitrary units
CAR comprising scFv-8′ (SEQ ID NO: 64) (other, CAR on mRNA-electroporated human CD8+ T cells; Only the scFv is identified; not shown: rest of the CAR (hinge, transmembrane, cytoplasmic domains) not specified for this construct) DIVLTQSPSSLSASVGDRATISCRASESVSFLGINLIHWYQQKPGQAPKLLIYSASNLQSGVPARFSGSGSGTDFTLTISSVEPEDVAVYYCLQSRTLPRTFGQGTKVEIKGSTSGSGKPGSGEGSTKGQIQLVQSGPELKKPGGSVKISCAASGYTFTDYSINWVRQAPGKGLEWVGWINTETREPAYAYDFRGRFTFSADTSKSTAYLQMNSLRAEDTAVYYCALDYSYAMDYWGQGTLVTVSS: 496 arbitrary units
CAR comprising scFv-12′ (SEQ ID NO: 68) (other, CAR on mRNA-electroporated human CD8+ T cells; Only the scFv is identified; not shown: rest of the CAR (hinge, transmembrane, cytoplasmic domains) not specified for this construct) DIVLTQSPSSLSASVGDRATISCRASESVTILGSHLIHWYQQKPGQAPKLLIQLASNVQTGVPARFSGSGSGTDFTLTISSVEPEDVAVYYCLQSKNFPRTFGQGTKVEIKGSTSGSGKPGSGEGSTKGQIQLVQSGPELKKPGGSVKISCAASGYTFTSYDINWVRQAPGKGLEWVGWINTETREPAYAYDFRGRFTFSADTSKSTAYLQMNSLRAEDTAVYYCALDYLYSLDFWGQGTLVTVSS: 446 arbitrary units
CAR comprising scFv-9′ (SEQ ID NO: 65) (other, CAR on mRNA-electroporated human CD8+ T cells; Only the scFv is identified; not shown: rest of the CAR (hinge, transmembrane, cytoplasmic domains) not specified for this construct) DIVLTQSPSSLSASVGDRATISCRASESVSFLGINLIHWYQQKPGQAPKLLIYSASNLQSGVPARFSGSGSGTDFTLTISSVEPEDVAVYYCLQSKNFPRTFGQGTKVEIKGSTSGSGKPGSGEGSTKGQIQLVQSGPELKKPGGSVKISCAASGYTFTDYSINWVRQAPGKGLEWVGWINTETREPAYAYDFRGRFTFSADTSKSTAYLQMNSLRAEDTAVYYCALDYSYAMDYWGQGTLVTVSS: 173 arbitrary units

Pending binder:
May I ask what BCMA Binding (arbitrary units) has been recorded for CAR comprising scFv-11′ (SEQ ID NO: 67) (other, CAR on mRNA-electroporated human CD8+ T cells; Only the scFv is identified; not shown: rest of the CAR (hinge, transmembrane, cytoplasmic domains) not specified for this construct) DIVLTQSPSSLSASVGDRATISCRASESVTILGSHLIHWYQQKPGQAPKLLIQLASNVQTGVPARFSGSGSGTDFTLTISSVEPEDVAVYYCLQSRTIPRTFGQGTKVEIKGSTSGSGKPGSGEGSTKGQIQLVQSGPELKKPGGSVKISCAASGYTFTSYDINWVRQAPGKGLEWVGWINTNTGNPTYAQGFTGRFTFSADTSKSTAYLQMNSLRAEDTAVYYCALDYTYGMDYWGQGTLVTVSS ?
310 arbitrary units

The origin of these recorded values is patent US20220089678A1.
